# Assay Procedure: A549 lung cancer cell viability effects, profiling panel, resazurin fluorescence, 24 h, PK04 Diversity Set (AID 1171); also: test concentration not given here
# Condition: higher = more signal, called active from +8 up or from −8 down
z-score below -0.3 gives Condition not met; z-score at or above it gives Condition met.

{"Molecule": "CCOC(=O)[C@H](CC(C)C)NC(=O)CCC1CC(OC(=O)NCc2ccc3c(c2)OCO3)CC2(CCCC(COC(=O)NCCOc3ccccc3)O2)O1 (stereo not given in full)", "Group": "Condition met"}
{"Molecule": "Cc1cc(C)c(-c2cc([C@H](C)ON=C[C@@H](C)[C@H](OCc3ccccc3)C(C)C)on2)c(C)c1", "Group": "Condition met"}
{"Molecule": "CCOC(=O)[C@H](Cc1ccccc1)NC(=O)CCC1CC(OC(=O)NCCc2ccc(F)cc2)CC2(CCCC(COC(=O)NCc3cccc(C(F)(F)F)c3)O2)O1 (stereo not given in full)", "Group": "Condition met"}
{"Molecule": "C[C@@H](c1ccccc1)N1C(=O)[C@H]2[C@H]3[C@H](O)[C@H](O)CC(=NOCc4ccccc4)[C@@H]3CC[C@H]2C1=O", "Group": "Condition met"}
{"Molecule": "COC(=O)[C@H](C)NC(=O)CCC1CC(OC(=O)NCc2ccc3c(c2)OCO3)CC2(CCCC(COC(=O)NCCc3ccc(Cl)cc3)O2)O1 (stereo not given in full)", "Group": "Condition met"}
{"Molecule": "CC(=O)OC[C@H]1O[C@H](C#CCCc2ccccc2)C=C[C@@H]1OC(C)=O", "Group": "Condition met"}
{"Molecule": "CCc1cc2c(nc1CC)CCN(CCC(C)=NOCC[C@@H]1C=C[C@H](OC(C)=O)[C@@H](COC(C)=O)O1)C2", "Group": "Condition met"}
{"Molecule": "C[C@@H](c1ccccc1)N1C(=O)[C@H]2[C@H]3[C@H](O)[C@H](O)CC(=NNC(=O)OCc4ccccc4)[C@@H]3CC[C@H]2C1=O", "Group": "Condition not met"}
{"Molecule": "COc1ccc(O[C@H]2C=C[C@@H](C#Cc3ccccc3)O[C@@H]2CO)cc1", "Group": "Condition met"}
{"Molecule": "Cc1ccc(S(=O)(=O)N[C@@H]2COC(=O)CC=C[C@@H](C)[C@H](NS(=O)(=O)c3ccc(C)cc3)COC(=O)[C@H](C)NC(=O)CC=C[C@H]2C)cc1", "Group": "Condition not met"}
{"Molecule": "COC(=O)[C@H](C)NC(=O)CCC1CC(OC(=O)NCc2cccc3ccccc23)CC2(CCCC(COC(=O)NCc3cccc(C(F)(F)F)c3)O2)O1 (stereo not given in full)", "Group": "Condition not met"}
{"Molecule": "COc1ccc(O[C@H]2C=C[C@@H](c3ccccc3)O[C@@H]2CO)cc1", "Group": "Condition not met"}
{"Molecule": "CC(C)CON=C1C[C@@H](O)[C@@H](O)[C@@H]2[C@@H]3C(=O)N([C@@H](C)c4ccccc4)C(=O)[C@@H]3CC[C@@H]12", "Group": "Condition met"}
{"Molecule": "CC(C)(C)N1C(=O)[C@H]2[C@H]3[C@H](O)[C@H](O)CC(=NOC[C@@H](O)COCc4ccco4)[C@H]3CC[C@H]2C1=O", "Group": "Condition not met"}
{"Molecule": "CO[C@@H]1C=CCC(=O)N[C@@H](C)C(=O)OC[C@@H](NS(=O)(=O)c2ccc(C)cc2)[C@H](C)C=CCC(=O)OC[C@H]1C", "Group": "Condition met"}
